Hey, just so you know, these numbers are from PubChem BioAssay AID1159580.

- assay-info: chemical genetic growth profiling, strain panel (AID 1159580);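 also: tested at 20 µM; growth read once vehicle control cultures reached saturation at 30 °C; lower values mean less growth of the strain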
- condition-details: S. cerevisiae deletion strains, growth OD, locus YAL021C, strain ccr4
The whole screen tested about 5,500 compounds, of which about 2,000 (36%) were called active. Not shown: some 18% with an inconclusive outcome. Rule as the data show it: active = normalized growth mostly below about 0.91 (no sharp cut-off); inconclusive = no clear call, values can overlap the other calls; inactive = mostly above about 0.92. This is one part of the list.
Classes used: T for active, F for inactive

molecule: Nc1nc2ncc(CNc3ccc(C(=O)N[C@@H](CCC(=O)O)C(=O)O)cc3)nc2c(=O)[nH]1
class: F

molecule: C#C[C@]1(O)CCC2C3CCc4cc(OC)ccc4C3CC[C@@]21C (stereo partly drawn)
class: F

molecule: NC(=O)c1cnccn1
class: F

molecule: NC(=O)c1ccc(N)nc1
class: F

molecule: CCOc1ccc2c(c1)C(C)=CC(C)(C)N2
class: F

molecule: CCn1cc(C(=O)O)c(=O)c2cnc(N3CCNCC3)nc21
class: F

molecule: CCCN(CCC)CCc1cccc2c1CC(=O)N2
class: F

molecule: CC[C@]1(O)CC2CN(CCc3c([nH]c4ccccc34)[C@@](C(=O)OC)(c3cc4c(cc3OC)N(C=O)[C@H]3[C@@](O)(C(=O)OC)[C@H](OC(C)=O)[C@]5(CC)C=CCN6CC[C@]43[C@@H]65)C2)C1 (stereo partly drawn)
class: F

molecule: OC1CCCCC1N1CCC(c2ccccc2)CC1 (stereo not drawn)
class: F

molecule: Cc1cccc(CN2CCN(C(c3ccccc3)c3ccc(Cl)cc3)CC2)c1 (stereo not drawn)
class: T

molecule: CCn1cc(C(=O)O)c(=O)c2cnc(N3CCCC3)nc21
class: T

molecule: Nc1nc(N)c2nc(CNc3ccc(C(=O)NC(CCC(=O)O)C(=O)O)cc3)cnc2n1 (stereo not drawn)
class: F

molecule: Nc1c(Br)cc(Br)cc1CNC1CCC(O)CC1 (stereo not drawn)
class: F

molecule: CCn1cc(C(=O)O)c(=O)c2cc3c(cc21)OCO3
class: F

molecule: CC[C@@H]1[C@@H](O)N2C3C[C@H]1C1C(O)[C@]4(C[C@@H]12)c1ccccc1N(C)[C@@H]34 (stereo partly drawn)
class: F

molecule: CCn1cc(C(=O)O)c(=O)c2ccc(C)nc21
class: T

molecule: CCOC(=O)C(C)(N)Cc1ccc(O)c(O)c1 (stereo not drawn)
class: F

molecule: C[C@](N)(Cc1ccc(O)cc1)C(=O)O
class: F

molecule: c1ccc2[nH]c(-c3cscn3)nc2c1
class: F

molecule: Nc1nc2c(c(=O)[nH]1)N(C=O)C(CNc1ccc(C(=O)N[C@@H](CCC(=O)O)C(=O)O)cc1)CN2 (stereo partly drawn)
class: F

molecule: C#C[C@]1(O)CCC2C3CCc4cc(O)ccc4C3CC[C@@]21C (stereo partly drawn)
class: F

molecule: CC(Cc1ccc(O)c(O)c1)(NN)C(=O)O (stereo not drawn)
class: F

molecule: CC1(C)O[C@@H]2CC3C4CCC5=CC(=O)C=C[C@]5(C)C4[C@@H](O)C[C@]3(C)[C@]2(C(=O)CO)O1 (stereo partly drawn)
class: F
